Biological target: HLA-B*07:02 (Homo sapiens)
Assay: In vitro binding of neoantigens to class I MHC (UV peptide exchange, HLA class I ELISA)
Details: 100% = same binding affinity as positive control peptide
Reported Exchange rate with Pos peptide, HLA-B*07:02 is given for each of the following sequences.
Reported metric: Exchange rate with Pos peptide, HLA-B*07:02 (%)

>>> print(df.to_string())
                             chain_sequence  unit_of_measurement  recorded_measurement
0  PKSEVRAKCKFSILNAK (listed as Homo sapiens) [Neoantigen P56, SPOP (F102C)]                    %                  82.5
1  GVPGDSTRRAVRRMNTF [P17] (listed as Homo sapiens) [Neoantigen P17, MSMB-NOCA4]                    %                  38.7
2  YEAGMTLGEKFRVGNCKHLKMTRP (listed as Homo sapiens) [Neoantigen P82, AR-V7]                    %                  12.9
3  GYLRMQGLMAQRLLLR (listed as Homo sapiens) [Neoantigen P97, FOXRED2-TXN2]                    %                     7
4  YEAGMTLGGKILFFLFLLLPLSPFSLIF (listed as Homo sapiens) [Neoantigen P87, AR-Intron]                    %                     5
5  VQPIARELYQFTFDLLI (listed as Homo sapiens) [Neoantigen P48, AR.p.H875Y]                    %                  12.8
